experiment: Viability qHTS for spleen associated tyrosine kinase inhibitor (SYKi) drug resistant MV4-11 cells (AID 1963824); conditions: SYKi-resistant MV4-11 viability, CellTiter-Glo, 72 h; series mostly up to 45 µM; further: nearly all actives have a fitted effect of over 35% in size
Results filed as inconclusive are left out. Active and inactive are the calls of the source. The call rests on the fitted dose curve; in most records, active means well fitted cell-killing curve with a large enough effect; inconclusive means small, poorly fitted or top-dose-only effect, or effect the other way; inactive means no such curve, though single readings can be large or run the other way.
Classes used: T = active, F = inactive

compound	group
CC[C@@H](Nc1c(Nc2cccc(C(=O)N(C)C)c2O)c(=O)c1=O)c1ccc(C)o1	F
CC(C)c1cc2c(c(O)c1O[C@@H]1O[C@H](CO)[C@@H](O)[C@H](O)[C@H]1O)CC1(O)CCC(O)C(C)(C)C1CC2 (stereo not given in full)	F
COc1c2c(c(C)c3c1C(=O)OC3)OC1(C)CC(O)C34OC(O)(CCC3(C)C1C2)OC4(C)C (stereo not given)	F
O=C(C1CC1)N1CC[C@@H](Cn2c(-c3ccc(-c4ccc5occc5c4)cc3)nc3cnccc32)C1	T
N#C/C(=C1/SC[C@@H](c2ccc(Cl)cc2Cl)S1)n1ccnc1	T
C[C@H](O)[C@H](O)/C=C/c1cccc(O)c1CO	T
C[C@@H]1C[C@H]2[C@@H]3C[C@H](F)C4=CC(=O)C=C[C@]4(C)[C@@]3(F)[C@@H](O)C[C@]2(C)[C@@]1(O)C(=O)CO	T
CC(C)Oc1ccc(C(=O)N[C@H](CNC(=O)CN(C)C)Cc2ccc(-c3cn4cccc([C@H](C)O)c4n3)cc2)cc1Cl	T
O=S(=O)(NCc1cccc2ccccc12)c1cc(Cl)c(Oc2cccc(N3CCNCC3)c2)s1	T
C[C@@H](Oc1cc(C(=O)Nc2ccc(C(=O)N3CCN(C)CC3)cc2)nnc1N)c1c(Cl)ccc(F)c1Cl	T
O=c1cc(O)c(Cl)c[nH]1	F
O=S(=O)(O)c1ccc2nc(-c3ccccc3)[nH]c2c1	F
O=c1ccc2ccc(OCCCCN3CCN(c4cccc5sccc45)CC3)cc2[nH]1	T
CCC[C@@H]1C[C@@H](C(=O)N[C@@H]([C@H]2O[C@H](SC)[C@H](O)[C@@H](O)[C@H]2O)[C@H](C)Cl)N(C)C1	F
OC[C@@]1(O)CO[C@H](OC[C@H]2O[C@@H](OCCc3ccccc3)[C@H](O)[C@@H](O)[C@@H]2O)[C@@H]1O	F
NC(N)=NCCC[C@H](NC(=O)c1sccc1NS(=O)(=O)c1cccc2nsnc12)C(=O)O	F
CN1CCCN=C1COC(=O)C(O)(c1ccccc1)C1CCCCC1 (stereo not given)	F
CC(C)C[C@@H](C(=O)N[C@@H](Cc1ccc(OCc2ccccc2)cc1)C(=O)NC(C)(C)C)N(C)Cc1ccc(C(C)(C)C)cc1	T
Cc1cc(N(C)C)ccc1-c1nc2ccc(-c3nc4ccc(N5CCN(C)CC5)cc4[nH]3)cc2[nH]1	T
CC1COC(Nc2ccc3ncnc(Nc4ccc(OCc5nccs5)c(Cl)c4)c3c2)=N1 (stereo not given)	T
CCN1/C(=C/C(C)=O)Sc2ccc(OC(C)=O)cc21	T
COc1c(Nc2ncc(Cl)c(N[C@H]3[C@H](C(N)=O)[C@@H]4C=C[C@@H]3C4)n2)ccc2c1CCC(N1CCOCC1)CC2 (stereo not given in full)	T
CC(C)Oc1ccc(-c2nc(-c3cccc4c3CCC4NCCC(=O)O)no2)cc1C#N (stereo not given)	F
O=C(O)c1ccccc1Nc1cc(Cl)ccc1C(=O)O	F
CC1(C)O[C@@H]2C[C@H]3[C@@H]4CCC5=CC(=O)CC[C@]5(C)[C@@]4(F)[C@@H](O)C[C@]3(C)[C@]2(C(=O)CCl)O1	T
CC(C)c1nn(-c2c(Cl)cccc2Cl)c2nc(Cc3ccc(OCCO)cc3)[nH]c(=O)c12	T
Cc1cn(-c2cc(NC(=O)c3ccc(C)c(Nc4nccc(-c5cnccn5)n4)c3)cc(C(F)(F)F)c2)cn1	F
CCCCCCCCCCCCCC[N+](C)(C)Cc1ccccc1	T
COc1ccc(/C=C/C(=O)O[C@@H]2[C@@H](O)[C@@H](O)[C@H](O[C@@H]3C=C(CO)[C@H]4[C@H](O[C@@H]5O[C@H](CO)[C@@H](O)[C@H](O)[C@H]5O)OC=C[C@H]43)O[C@H]2C)cc1O	F
COc1cc(/C=C/C(=O)OC[C@H]2O[C@@H](OC3CC(C)=C(C(=O)O)C(C)(C)C3)[C@H](O)[C@@H](O)[C@@H]2O)cc(OC)c1O (stereo not given in full)	F
O=C1NC2CCCCN2C12CCN(CCCN1c3ccccc3CCc3ccc(Cl)cc31)CC2 (stereo not given)	T
O=c1cc[nH]c(=O)[nH]1	F
COc1ccc(-c2ccc3cc(C(=O)O)ccc3c2)cc1C12CC3CC(CC(C3)C1)C2	T
COc1cc2ncnc(Nc3ccc(F)c(Cl)c3)c2cc1O	T
Clc1ccccc1C(c1ccccc1)(c1ccccc1)n1ccnc1	T
